System: TAG
Experiment: TAG lipid buildup inhibition with viability readout – cell-based, panel, Nile Red and DAPI fluorescence, H9c2, dose response (AID 651630);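 further: cells exposed to compound overnight before fixation and staining; hits lower the Nile Red lipid signal and are scored as TAG inhibitors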
Details: H9c2 cells, Nile Red TAG fluorescence, oleic acid, mean of runs
Activity calls are given as the source filed them.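 How the source made its calls: active means lipid-stain IC50 at or below a set limit, with nuclear-stain toxicity IC50 at least five times higher; inactive means the rest.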
Outcomes: T for active, F for inactive

{"MOLECULE": "COC(=O)C=C1CCC2C3CCC4=CC(=O)C(Br)CC4(C)C3C(=O)CC12C (stereo not given)", "LABEL_CLASS": "T"}
{"MOLECULE": "O=C(Nc1ccncc1)C1CCCN(S(=O)(=O)c2cccc3cccnc23)C1 (stereo not given)", "LABEL_CLASS": "F"}
{"MOLECULE": "Nc1ccccc1C#Cc1ccccc1", "LABEL_CLASS": "T"}
{"MOLECULE": "Cc1ccsc1-c1nc(C(N)=O)c2[nH]c(=O)n(-c3ccc(Cl)cc3)c2n1", "LABEL_CLASS": "F"}
{"MOLECULE": "CC(C)(C)N1C(=O)[C@H]2[C@@H](c3ccc(Br)cc3)N3C(=O)N(c4ccc(Br)cc4)C(=O)[C@@]3(Cc3ccccc3)[C@H]2C1=O", "LABEL_CLASS": "F"}

* * *

Known IC50 of a selection of compounds
Test system: TAG
Experiment: TAG lipid buildup inhibition with viability readout – cell-based, panel, Nile Red and DAPI fluorescence, H9c2, dose response (AID 651630);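 further: cells exposed to compound overnight before fixation and staining; hits lower the Nile Red lipid signal and are scored as TAG inhibitors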
Conditions: H9c2 cells, Nile Red TAG fluorescence, oleic acid, mean of runs
Calls of active or inactive are those of the source.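 Rule for the calls: active = lipid-stain IC50 at or below a set limit, with nuclear-stain toxicity IC50 at least five times higher; inactive = the rest.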
READOUT: IC50

{"COMPOUND": "c1ccc(N=NC2=NN(c3ccccc3)CS2)cc1", "REPORTED": "3.69 µM"}
{"COMPOUND": "CCCCSc1nc2ccc(Nc3nc(N4CCOCC4)nc(N4CCOCC4)n3)cc2s1", "REPORTED": "4.78 µM"}
{"COMPOUND": "Cc1ccc(CN(C(=O)c2csnn2)C(C(=O)NC2CCCC2)c2ccc(C)o2)cc1 (configuration not stated)", "REPORTED": "> 25 µM (inactive)"}
{"COMPOUND": "CN(C)CCCN1c2ccccc2Sc2ccc3ccccc3c21", "REPORTED": "> 25 µM (inactive)"}
{"COMPOUND": "COc1ccc(-c2cnc3c(NC=O)cc(-c4cccc(NS(C)(=O)=O)c4)cn23)cc1OC", "REPORTED": "13.1 µM"}
{"COMPOUND": "COc1cc(NC(=O)c2csc(N)n2)cc(C(=O)Nc2cccc(C(F)(F)F)c2)c1", "REPORTED": "13.5 µM"}
{"COMPOUND": "O=C1C(NS(=O)(=O)c2cccs2)=C(N2CCN(c3cccc(C(F)(F)F)c3)CC2)C(=O)c2ccccc21", "REPORTED": "5.88 µM"}
{"COMPOUND": "O=C1COc2ccc(C(=O)CSc3nc4ccccc4c(=O)n3-c3ccc(Cl)c(Cl)c3)cc2N1", "REPORTED": "13.8 µM"}
{"COMPOUND": "C=CCC[C@@H](Cc1ccc(F)cc1)C(=O)OC[C@H](Cc1c[nH]c2ccccc12)NC(=O)[C@@H](CC=C)CC(=O)N(CCO)Cc1ccccc1", "REPORTED": "13.1 µM"}
{"COMPOUND": "COc1ccc(C2=CC(c3ccc4c(c3)OCO4)c3c(c4ccccc4oc3=O)O2)cc1OC (configuration not stated)", "REPORTED": "18.8 µM (inactive)"}
{"COMPOUND": "CCN1CCN(Cc2ccc(NC(=O)c3ccc(C)c(NC(=O)C(=O)c4c[nH]c5ccccc45)c3)cc2C(F)(F)F)CC1", "REPORTED": "4.98 µM"}
{"COMPOUND": "COc1ccc(OC)c(Nc2nc(-c3sc(NC(=O)CC(C)C)nc3C)cs2)c1", "REPORTED": "14.1 µM"}
{"COMPOUND": "C=CCn1c(SCc2c(C)noc2C)nc2sc3c(c2c1=O)CCC(C)C3 (configuration not stated)", "REPORTED": "> 25 µM (inactive)"}
{"COMPOUND": "O=C(CSc1nc2ccc(Nc3nc(N4CCOCC4)nc(N4CCOCC4)n3)cc2s1)Nc1ccccc1Cl", "REPORTED": "8.88 µM"}
{"COMPOUND": "CCOC(=O)C(C)Oc1cccc2c(=O)n(CC(=O)NCc3ccc4c(c3)OCO4)ccc12 (configuration not stated)", "REPORTED": "18 µM (inactive)"}
{"COMPOUND": "Cc1cc(Nc2ccc(C)c(Cl)c2)nc(N2CCOCC2)n1", "REPORTED": "> 25 µM (inactive)"}
{"COMPOUND": "CCCCCCCC(=O)Nc1cc(C(=O)NCCC)ccc1N1CCC2(CC1)CC(c1cccc(Br)c1)=NO2", "REPORTED": "15.2 µM (inactive)"}
{"COMPOUND": "Cc1cccc2c(C(=O)N3CCN(c4ccccc4)CC3)cc(-c3ccncc3)nc12", "REPORTED": "8.06 µM"}
{"COMPOUND": "CC(C)(C)NCCC(O)c1cc(C(F)(F)F)nc2c(C(F)(F)F)cccc12 (configuration not stated)", "REPORTED": "11.2 µM"}
{"COMPOUND": "N#CC1C=Cc2c(ccc3ccccc23)N1C(=O)c1ccccc1 (configuration not stated)", "REPORTED": "> 25 µM (inactive)"}
{"COMPOUND": "CCOc1ccccc1-c1nc(-c2ccc(NC(=O)Cc3ccccc3OC)cc2)no1", "REPORTED": "> 25 µM (inactive)"}
{"COMPOUND": "CCOC(=O)c1ccc(NC(=O)c2nc[nH]c2C(=O)NCCCCNC(=O)c2[nH]cnc2C(=O)Nc2ccc(C(=O)OCC)cc2)cc1", "REPORTED": "3.89 µM"}
{"COMPOUND": "C=CC[C@@H](CC(=O)N(CCO)Cc1ccccc1)C(=O)N[C@H](COC(=O)[C@@H](CC=C)CC(=O)OC(C)(C)C)Cc1ccccc1", "REPORTED": "5.86 µM"}
{"COMPOUND": "CCOC(=O)[C@H]1[C@H]2COc3ccc(Cl)cc3[C@@H]2N2C(=O)c3cc(OC)ccc3NC(=O)[C@@]12C", "REPORTED": "> 25 µM (inactive)"}
{"COMPOUND": "O=[N+]([O-])c1ccc(Nc2nc(N3CCOCC3)nc(N3CCOCC3)n2)cc1", "REPORTED": "21.4 µM (inactive)"}
{"COMPOUND": "COc1ccc(OC)c(NS(=O)(=O)c2ccc(N3CCCC3=O)cc2)c1", "REPORTED": "> 25 µM (inactive)"}
{"COMPOUND": "CN(C)C(=O)c1cccc(-c2cnc3c(NC=O)cc(-c4ccc(C(=O)N5CCOCC5)cc4)cn23)c1", "REPORTED": "8.71 µM"}
{"COMPOUND": "COc1ccc(CNC(=O)c2ccc(N3CCC4(CC3)CC(c3ccc(Cl)cc3)=NO4)c(NC(=O)Cc3ccc(F)cc3)c2)cc1", "REPORTED": "> 25 µM (inactive)"}
{"COMPOUND": "C[C@]12c3[nH]c4ccccc4c3CCN1C(=O)C(CC(=O)NCC13CC4CC(CC(C4)C1)C3)C[C@@H]2C(=O)N1CCCCC1 (some centres not stated)", "REPORTED": "14.6 µM"}
{"COMPOUND": "COc1cc(OC)c2c(-c3ccccc3)cc(=O)oc2c1C(CCN1CCCCC1)c1ccc2c(c1)OCO2 (configuration not stated)", "REPORTED": "22.9 µM (inactive)"}
{"COMPOUND": "CCOC(=O)c1c(CSC(=N)N)n(-c2ccccc2)c2cc(Br)c(OC(C)=O)cc12", "REPORTED": "18 µM (inactive)"}
{"COMPOUND": "NC(N)=Nc1ccc(C=C2C=Cc3ccccc32)cc1", "REPORTED": "11.8 µM"}
{"COMPOUND": "CC(=O)c1ccc(Oc2cc(C)nc(-n3nc(C)cc3C)n2)cc1", "REPORTED": "11.5 µM"}
{"COMPOUND": "O=C(CSc1nc2ccc(Nc3nc(N4CCOCC4)nc(N4CCOCC4)n3)cc2s1)Nc1ccccc1F", "REPORTED": "12.9 µM"}
{"COMPOUND": "Cc1ccc(/C=N/NC(=O)c2c(C)nc3ccc(Br)cn23)cc1", "REPORTED": "> 25 µM (inactive)"}
{"COMPOUND": "Cc1ccc(-c2csc(NC(=O)CSc3nc4ccccc4c(=O)n3CCCN(C)C)n2)cc1", "REPORTED": "7.04 µM"}
{"COMPOUND": "COCCN1Cc2cccc(C(=O)Nc3cccc(-c4nc5ccccc5[nH]4)c3)c2C1=O", "REPORTED": "1.96 µM"}

* * *

System: TAG
Experiment: TAG lipid buildup inhibition with viability readout – cell-based, panel, Nile Red and DAPI fluorescence, H9c2, dose response (AID 651630);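 further: cells exposed to compound overnight before fixation and staining; hits lower the Nile Red lipid signal and are scored as TAG inhibitors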
Conditions: H9c2 cells, Nile Red TAG fluorescence, oleic acid, mean of runs
Active and inactive are the calls of the source.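 How the source made its calls: active means lipid-stain IC50 at or below a set limit, with nuclear-stain toxicity IC50 at least five times higher; inactive means the rest.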
Entries and their measured IC50 follow.

{"COMPOUND": "COC(=O)[C@@]1(Cc2ccccc2)[C@H]2C(=O)N(Cc3ccccc3)C(=O)[C@H]2[C@H]2CN=C(SCc3ccc(Cl)cc3)N21", "MEASUREMENT_TARGET": "TAG", "IC50": "9.75 µM"}
{"COMPOUND": "C[C@@H]1CN([C@H](C)CO)C(=O)c2c(c3ccccc3n2C)-c2ccccc2CO[C@H]1CN(C)Cc1ccc(-c2ccccc2)cc1", "MEASUREMENT_TARGET": "TAG", "IC50": "14.9 µM"}
{"COMPOUND": "Cc1nn(-c2ccc([N+](=O)[O-])cc2)c2c1C(c1ccc(OC(F)F)cc1)N1C(=N2)C(=O)Nc2ccccc21 (centres undefined)", "MEASUREMENT_TARGET": "TAG", "IC50": "8.6 µM"}
{"COMPOUND": "CC1CC2(C)Oc3ccccc3CC2C(C)C1CNCCCN(C)C (centres undefined)", "MEASUREMENT_TARGET": "TAG", "IC50": "> 25 µM (inactive)"}
